Assay text: NCI Yeast Anticancer Drug Screen. Data for the rad18 strain (AID 177)
Test parameters: S. cerevisiae rad18 mutant growth inhibition; at 33.0 µM; active compounds read high
About 79,000 compounds went through this panel and 15% of them were active in at least one assay; those are over-represented in the sample as a whole.
Decision: growth inhibition compared against 40%; not below it gives Criterion met, below it gives Criterion not met.

Here are 3 molecules together with their reported answers.
Exercise: hey, is growth inhibition for this one >= 40%? c1cc(-c2sc(-c3ccncc3)c(-c3ccncc3)c2-c2ccncc2)ccn1
Key: Criterion not met

Exercise: Decide: growth inhibition of OC(CC(O)(C(F)(F)F)C(F)(F)F)c1ccc(C(O)CC(O)(C(F)(F)F)C(F)(F)F)cc1 (stereo unspecified) >= 40%?
Key: Criterion met

Exercise: Evaluate Cc1cccc(/C=N/NC(=S)NC2CCCCC2)n1 : growth inhibition at minimum 40%?
Key: Criterion not met

---
Exercise: Does growth inhibition meet or surpass 40% for CN(C)/C(=N/C(=S)Nc1ccccc1)SCc1ccccc1 ?
Key: Criterion not met

Exercise: In plain terms: is recorded growth inhibition at least 40% for OC1(C#CI)CCCCC1 ?
Key: Criterion met

Exercise: Determine whether measured growth inhibition meets or exceeds 40% for COc1ccc2nc3cccc([N+](=O)[O-])c3c(NCCNCCN(C)C)c2c1
Key: Criterion not met

Exercise: growth inhibition >= 40% for CCOc1ccc2nc3ccccc3c(N)c2c1 ?
Key: Criterion met

Exercise: Is growth inhibition at least 40%? Consider O=C1C(=O)c2cccc([N+](=O)[O-])c2-c2ccccc21
Key: Criterion met

Exercise: Dear colleague, could you confirm whether Cc1cccc(C)c1NC(=O)CCC(=O)C(C)C(=O)c1ccc(O)cc1 (stereo unspecified) has growth inhibition at or above 40%?
Key: Criterion not met

Exercise: Does the reported growth inhibition for CC(C)Cc1ncc(CCCN=C(N)N)[nH]c1=O fall at or above the 40% mark?
Key: Criterion not met
